Assay: Long-term accelerated stability test (Test Example 3), sealed in aluminum foil bags
Format: physicochemical
Details: 25°C/60%RH and 40°C/75%RH for 6 months
Structures can show the parent of a compound that is named as a salt.
measured_property: physicochemical stability

molecule	readout_value
Cl.Cl.Cl.Cl.O=C(O)[C@@H](Cc1cccc(CN(CCOc2cccc(C[C@H](C(=O)O)[C@H]3CCNC3)c2)Cc2cccc(C[C@H](C(=O)O)[C@H]3CCNC3)c2)c1)[C@H]1CCNC1 [hydrochloride (1:4) amorphous form]	slightly less stable
O=C(O)[C@@H](Cc1cccc(CN(CCOc2cccc(C[C@H](C(=O)O)[C@H]3CCNC3)c2)Cc2cccc(C[C@H](C(=O)O)[C@H]3CCNC3)c2)c1)[C@H]1CCNC1 [hydrochloride (1:1) crystal form a]	slightly less stable
O=C(O)[C@@H](Cc1cccc(CN(CCOc2cccc(C[C@H](C(=O)O)[C@H]3CCNC3)c2)Cc2cccc(C[C@H](C(=O)O)[C@H]3CCNC3)c2)c1)[C@H]1CCNC1 [hydrochloride (1:1) crystal form e]	good
O=C(O)[C@@H](Cc1cccc(CN(CCOc2cccc(C[C@H](C(=O)O)[C@H]3CCNC3)c2)Cc2cccc(C[C@H](C(=O)O)[C@H]3CCNC3)c2)c1)[C@H]1CCNC1 [hydrochloride (1:1) amorphous form]	slightly less stable

---

Experiment: Long-term accelerated stability test (Test Example 3), sealed in aluminum foil bags
Assay type: physicochemical
Conditions: 25°C-60%RH, 1 month
Counter-ions that a name gives are not always drawn.
measured_property: Crystal form

compound	measured_property	readout_value
O=C(O)[C@@H](Cc1cccc(CN(CCOc2cccc(C[C@H](C(=O)O)[C@H]3CCNC3)c2)Cc2cccc(C[C@H](C(=O)O)[C@H]3CCNC3)c2)c1)[C@H]1CCNC1 [hydrochloride (1:1) crystal form e]	Crystal form	Unchanged
O=C(O)[C@@H](Cc1cccc(CN(CCOc2cccc(C[C@H](C(=O)O)[C@H]3CCNC3)c2)Cc2cccc(C[C@H](C(=O)O)[C@H]3CCNC3)c2)c1)[C@H]1CCNC1 [hydrochloride (1:1) crystal form a]	Crystal form	Unchanged
Cl.Cl.Cl.Cl.O=C(O)[C@@H](Cc1cccc(CN(CCOc2cccc(C[C@H](C(=O)O)[C@H]3CCNC3)c2)Cc2cccc(C[C@H](C(=O)O)[C@H]3CCNC3)c2)c1)[C@H]1CCNC1 [hydrochloride (1:4) amorphous form]	Crystal form	Unchanged

---

Experiment: Long-term accelerated stability test (Test Example 3), sealed in aluminum foil bags
Format: physicochemical
Conditions: 0 day
Where a name gives a salt, the structure may show the parent alone.
measured_property: Crystal form

compound	readout_value
Cl.Cl.Cl.Cl.O=C(O)[C@@H](Cc1cccc(CN(CCOc2cccc(C[C@H](C(=O)O)[C@H]3CCNC3)c2)Cc2cccc(C[C@H](C(=O)O)[C@H]3CCNC3)c2)c1)[C@H]1CCNC1 [hydrochloride (1:4) amorphous form]	Amorphous form
O=C(O)[C@@H](Cc1cccc(CN(CCOc2cccc(C[C@H](C(=O)O)[C@H]3CCNC3)c2)Cc2cccc(C[C@H](C(=O)O)[C@H]3CCNC3)c2)c1)[C@H]1CCNC1 [hydrochloride (1:1) amorphous form]	Amorphous form

---

Test: Long-term accelerated stability test (Test Example 3), sealed in aluminum foil bags
Type: physicochemical
Conditions: 25°C-60%RH, 7 days
Structures can show the parent of a compound that is named as a salt.

compound	Crystal form
O=C(O)[C@@H](Cc1cccc(CN(CCOc2cccc(C[C@H](C(=O)O)[C@H]3CCNC3)c2)Cc2cccc(C[C@H](C(=O)O)[C@H]3CCNC3)c2)c1)[C@H]1CCNC1 [hydrochloride (1:1) amorphous form]	Unchanged
Cl.Cl.Cl.Cl.O=C(O)[C@@H](Cc1cccc(CN(CCOc2cccc(C[C@H](C(=O)O)[C@H]3CCNC3)c2)Cc2cccc(C[C@H](C(=O)O)[C@H]3CCNC3)c2)c1)[C@H]1CCNC1 [hydrochloride (1:4) amorphous form]	Unchanged
O=C(O)[C@@H](Cc1cccc(CN(CCOc2cccc(C[C@H](C(=O)O)[C@H]3CCNC3)c2)Cc2cccc(C[C@H](C(=O)O)[C@H]3CCNC3)c2)c1)[C@H]1CCNC1 [hydrochloride (1:1) crystal form e]	Unchanged
O=C(O)[C@@H](Cc1cccc(CN(CCOc2cccc(C[C@H](C(=O)O)[C@H]3CCNC3)c2)Cc2cccc(C[C@H](C(=O)O)[C@H]3CCNC3)c2)c1)[C@H]1CCNC1 [hydrochloride (1:1) crystal form a]	Unchanged
